- System: C-4-I (Cervical Carcinoma);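 note: after 72 h of two-drug dosing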
- experiment_summary: Bliss excess, mean over the matrix (fraction); higher = more synergy
Bliss excess below 0.006 gives Not satisfied; Bliss excess at or above it gives Satisfied.

**Q:** # bool: Bliss excess of CN(C)CCCOc1ccc(-c2ccc3ncc4c(c3c2)n(C2CCOCC2)c(=O)n4C)cn1 [AZD0156] + O=C(c1cc(Cc2n[nH]c(=O)c3ccccc23)ccc1F)N1CCN(C(=O)C2CC2)CC1 [Olaparib] (first compound max 3 µM, partner max 3 µM) >= 0.006
**A:** Satisfied

**Q:** Threshold query (Bliss excess >= 0.006) on Cc1c2c(nn1C)CSCc1cc(n(C)n1)CSc1cc(c3ccccc3c1)OCCCc1c(C(=O)O)n(C)c3c-2c(Cl)ccc13 [AZD5991] + CC1(C)CCC(CN2CCN(c3ccc(C(=O)NS(=O)(=O)c4ccc(NCC5CCOCC5)c([N+](=O)[O-])c4)c(Oc4cnc5[nH]ccc5c4)c3)CC2)=C(c2ccc(Cl)cc2)C1 [Venetoclax] (first compound max 1 µM, 7x7, partner max 1 µM)
**A:** Not satisfied

**Q:** Dear colleague, could you confirm whether Cn1cnc2c(F)c(Nc3ccc(Br)cc3Cl)c(C(=O)NOCCO)cc21 [Selumetinib] + C=CCn1c(=O)c2cnc(Nc3ccc(N4CCN(C)CC4)cc3)nc2n1-c1cccc(C(C)(C)O)n1 [AZD1775] (first compound max 10 µM, partner max 1 µM) has Bliss excess at or above 0.006?
**A:** Satisfied

**Q:** Form field: Bliss excess at least 0.006? Entry: COc1cccc(OCCCN)c1-c1cc(Nc2cnc(C#N)cn2)n[nH]1 [Prexasertib] + O=C(c1cc(Cc2n[nH]c(=O)c3ccccc23)ccc1F)N1CCN(C(=O)C2CC2)CC1 [Olaparib] (first compound max 1 µM, 7x7, partner max 10 µM)
**A:** Not satisfied

**Q:** Confirm if Bliss excess reported for the molecule Cc1c2c(nn1C)CSCc1cc(n(C)n1)CSc1cc(c3ccccc3c1)OCCCc1c(C(=O)O)n(C)c3c-2c(Cl)ccc13 [AZD5991] + CN(C)CCCOc1ccc(-c2ccc3ncc4c(c3c2)n(C2CCOCC2)c(=O)n4C)cn1 [AZD0156] (first compound max 1 µM, 7x7, partner max 1 µM) is 0.006 or above.
**A:** Satisfied

**Q:** I'd appreciate it if you could say whether CN(CCO)CC[C@H](CSc1ccccc1)Nc1ccc(S(=O)(=O)NC(=O)c2ccc(N3CCC([C@@H](O)c4ccccc4-c4ccc(Cl)cc4)CC3)cc2)cc1S(=O)(=O)C(F)(F)F [AZD4320] + CN(C)CCCOc1ccc(-c2ccc3ncc4c(c3c2)n(C2CCOCC2)c(=O)n4C)cn1 [AZD0156] (first compound max 1 µM, 7x7, partner max 1 µM) has Bliss excess at least equal to 0.006.
**A:** Not satisfied

**Q:** Would you say CN(CCO)CC[C@H](CSc1ccccc1)Nc1ccc(S(=O)(=O)NC(=O)c2ccc(N3CCC([C@@H](O)c4ccccc4-c4ccc(Cl)cc4)CC3)cc2)cc1S(=O)(=O)C(F)(F)F [AZD4320] + C1CN(CCC1(C(=O)N[C@@H](CCO)C2=CC=C(C=C2)Cl)N)C3=NC=NC4=C3C=CN4 [Capivasertib] (first compound max 1 µM, 7x7, partner max 3 µM) shows Bliss excess at minimum 0.006?
**A:** Not satisfied
